# Measured Target: STING AQ: His-TVMV-S-hSTING(155-341)-G230A-R293Q (Homo sapiens, UniProt Q86WV6, G230A/H232R/R293Q)
# Construct: STING AQ: His-TVMV-S-hSTING(155-341)-G230A-R293Q
# Sequence (Q86WV6 with tags, fused parts or gaps G230A/H232R/R293Q): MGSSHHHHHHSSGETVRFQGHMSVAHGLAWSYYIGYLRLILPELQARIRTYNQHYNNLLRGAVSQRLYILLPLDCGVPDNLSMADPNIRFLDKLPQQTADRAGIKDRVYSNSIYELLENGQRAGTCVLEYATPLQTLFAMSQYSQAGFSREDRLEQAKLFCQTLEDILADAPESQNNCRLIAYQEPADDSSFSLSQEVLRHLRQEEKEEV
# Assay Name: STING HTRF binding assay (time resolved FRET competition), STING AQ
# Measurement Setup: 20 nM His-tagged STING AQ cytoplasmic domain, 40 nM fluorescein-labeled cGAMP analog probe, one hour; read-out: HTRF Binding Assays IC50 (μM) AQ
# Procedure: A time resolved FRET-based competition binding assay was used to assess test article binding to STING WT and STING AQ. […] Fluorescence at 495 nm and 520 nm was measured using an EnVision microplate reader to quantify FRET between Tb-labeled anti-His antibody and fluorescein-labeled probe. […] Percent inhibition was determined for test compounds at 11 concentrations. […]
The molecules listed here are annotated with their IC50.
Hi! Could you send only the number? It should be in µM, unit omitted.

// worked examples, IC50 included
Molecule	IC50, µM
NC(=O)c1cc([C@@H]2C[C@@H]3COP(=O)(S)O[C@H]4[C@H](F)[C@H](n5cnc6c(N)ncnc65)O[C@@H]4COP(=O)(S)OC[C@H]32)ccn1 (single isomer, unassigned) [Example 11]	10.1
NC(=O)c1cc([C@@H]2C[C@@H]3COP(=O)(S)O[C@H]4[C@@H](F)[C@H](n5cnc6c(N)ncnc65)O[C@@H]4COP(=O)(O)OC[C@H]32)ccn1 (single isomer, unassigned) [Example 13]	0.1
Nc1ncnc2c1ncn2[C@@H]1O[C@@H]2COP(=O)(S)OC[C@@H]3[C@@H](COP(=O)(S)O[C@H]2[C@H]1F)C[C@H]3n1cnc2c(O)n3ccnc3nc21 (single isomer, unassigned) [Example 1-4]	0.002
Nc1ncnc2c1ncn2[C@@H]1O[C@@H]2COP(=O)(S)OC[C@@H]3[C@@H](COP(=O)(S)O[C@H]2[C@H]1F)C[C@H]3n1cnc2c(=O)[nH]cnc21 (single isomer, unassigned) [Example 22-2]	0.02

Asked: Quick one: IC50 for Nc1ncnc2c1ncn2[C@@H]1O[C@@H]2COP(=O)(S)OC[C@@H]3[C@@H](COP(=O)(S)O[C@H]2[C@H]1F)C[C@H]3n1cnc2c(O)n3ccnc3nc21 (single isomer, unassigned) [Example 1-2] ?
Given back: 0.04

Asked: NC(=O)c1cc([C@@H]2O[C@@H]3COP(=O)(S)OC[C@@H]4[C@@H](COP(=O)(S)O[C@@H]2[C@@H]3O)C[C@H]4n2cnc3c(N)ncnc32)ccn1 (single isomer, unassigned) [Example 20-4] ?
Given back: 35.7

Asked: Proceed to NC(=O)c1cc([C@@H]2C[C@@H]3COP(=O)(O)O[C@H]4[C@@H](F)[C@H](n5cnc6c(N)ncnc65)O[C@@H]4COP(=O)(O)OC[C@H]32)ccn1 [Example 12]
Given back: 0.35

Asked: Proceed to O=P1(S)OC[C@@H]2[C@@H](COP(=O)(S)O[C@H]3[C@@H](F)[C@H](n4cnc5c4ncn4ccnc54)O[C@@H]3CO1)C[C@H]2n1cnc2c(Cl)ncnc21 (single isomer, unassigned) [Example 18-1]
Given back: 26.4

----------
# Measured Target: STING WT: His-TVMV-S-hSTING(155-341)-H232R (Homo sapiens, UniProt Q86WV6, H232R)
# Construct: STING WT: His-TVMV-S-hSTING(155-341)-H232R
# Sequence (Q86WV6 with tags, fused parts or gaps H232R): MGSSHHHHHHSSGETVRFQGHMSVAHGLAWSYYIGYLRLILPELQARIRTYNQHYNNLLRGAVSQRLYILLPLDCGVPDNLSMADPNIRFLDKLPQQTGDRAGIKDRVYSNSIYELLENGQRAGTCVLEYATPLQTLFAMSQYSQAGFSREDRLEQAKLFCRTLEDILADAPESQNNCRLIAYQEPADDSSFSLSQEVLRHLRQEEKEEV
# Assay Name: STING HTRF binding assay (time resolved FRET competition), STING WT
# Measurement Setup: 20 nM His-tagged STING WT cytoplasmic domain, 200 nM fluorescein-labeled cGAMP analog probe, one hour; read-out: HTRF Binding Assays IC50 (μM) WT
# note: exactly 3 µM is not below, so it is No; use Yes for IC50 strictly under it

Molecule	Label
Nc1ncnc2c1ncn2[C@@H]1O[C@@H]2COP(=O)(S)OC[C@@H]3[C@@H](COP(=O)(S)O[C@H]2[C@H]1F)C[C@H]3n1cnc2c(=O)[nH]cnc21 (single isomer, unassigned) [Example 22-3]	Yes
Nc1ncnc2c1ncn2[C@@H]1C[C@@H]2COP(=O)(O)O[C@H]3[C@@H](F)[C@H](n4cnc5c4ncn4ccnc54)O[C@@H]3COP(=O)(O)OC[C@H]21	No
Nc1ncnc2c1ncn2[C@@H]1O[C@@H]2COP(=O)(S)OC[C@@H]3[C@@H](COP(=O)(S)O[C@H]2[C@H]1F)C[C@H]3n1cnc2c1ncn1ccnc21 (single isomer, unassigned) [Example 3-1]	Yes
NC(=O)c1cc([C@@H]2C[C@@H]3COP(=O)(S)O[C@H]4[C@@H](F)[C@H](n5cnc6c(N)ncnc65)O[C@@H]4COP(=O)(S)OC[C@H]32)ccn1 (single isomer, unassigned) [Example 9]	Yes
NC(=O)c1cc([C@@H]2C[C@@H]3COP(O)(=S)O[C@H]4[C@@H](F)[C@H](n5cnc6c(N)ncnc65)O[C@@H]4COP(=O)(O)OCC32)ccn1 (single isomer, unassigned)	No

Asked: IC50 strictly < 3 µM for this molecule? Nc1ncnc2c1ncn2[C@@H]1C[C@@H]2COP(=O)(S)O[C@@H]3[C@H](F)[C@@H](COP(=O)(S)OC[C@H]21)O[C@H]3n1cnc2c1ncn1ccnc21 (single isomer, unassigned) [Example 8-3]
Given back: Yes

Asked: Same for Nc1ncnc2c1ncn2[C@@H]1O[C@@H]2COP(=O)(S)OC[C@@H]3[C@@H](COP(=O)(S)O[C@H]2[C@H]1F)C[C@H]3n1cnc2c(O)n3ccnc3nc21 (single isomer, unassigned) [Example 1-3]
Given back: Yes

Asked: # iterate: Nc1ncnc2c1ncn2[C@@H]1C[C@@H]2COP(=O)(S)O[C@@H]3[C@H](F)[C@@H](COP(=O)(S)OC[C@H]21)O[C@H]3n1cnc2c(=O)n3cc[nH]c3nc21 (single isomer, unassigned) [Example 6-3]
Given back: No

Asked: // query: Nc1ncnc2c1ncn2[C@@H]1O[C@@H]2COP(=O)(S)OC[C@@H]3[C@@H](COP(=O)(S)O[C@H]2[C@H]1F)C[C@H]3n1cnc2c(O)n3ccnc3nc21 (single isomer, unassigned) [Example 1-1]
Given back: Yes

----------
# Measured Target: STING AQ: His-TVMV-S-hSTING(155-341)-G230A-R293Q (Homo sapiens, UniProt Q86WV6, G230A/H232R/R293Q)
# Construct: STING AQ: His-TVMV-S-hSTING(155-341)-G230A-R293Q
# Assay Name: STING HTRF binding assay (time resolved FRET competition), STING AQ
# Measurement Setup: 20 nM His-tagged STING AQ cytoplasmic domain, 40 nM fluorescein-labeled cGAMP analog probe, one hour; read-out: HTRF Binding Assays IC50 (μM) AQ
IC50 for assorted compounds

Compound	Property Label	Recorded Value
Nc1ncnc2c1ncn2[C@@H]1C[C@@H]2COP(=O)(O)O[C@H]3[C@@H](F)[C@H](n4cnc5c4ncn4ccnc54)O[C@@H]3COP(=O)(O)OC[C@H]21	IC50	0.02 µM

Asked: Quick check: IC50 of Nc1ncnc2c1ncn2[C@@H]1C[C@@H]2COP(=O)(S)O[C@@H]3[C@H](F)[C@@H](COP(=O)(S)OC[C@H]21)O[C@H]3n1cnc2c(=O)n3cc[nH]c3nc21 (single isomer, unassigned) [Example 6-4] ?
Given back: 0.63 µM

Asked: Now the compound Nc1ncnc2c1ncn2[C@@H]1O[C@@H]2COP(=O)(S)OC[C@@H]3[C@@H](COP(=O)(S)O[C@H]2[C@H]1F)C[C@H]3n1cnc2c(O)n3ccnc3nc21 (single isomer, unassigned) [Example 1-1]
Given back: 0.01 µM

Asked: Try the compound Nc1ncnc2c1ncn2[C@@H]1C[C@@H]2COP(=O)(S)O[C@@H]3[C@H](F)[C@@H](COP(=O)(S)OC[C@H]21)O[C@H]3n1cnc2c(=O)n3cc[nH]c3nc21 (single isomer, unassigned) [Example 6-3]
Given back: 0.22 µM

Asked: Nc1ncnc2c1ncn2[C@@H]1C[C@@H]2COP(=O)(S)O[C@H]3[C@@H](O)[C@H](n4cnc5c(=O)n6cc[nH]c6nc54)O[C@@H]3COP(=O)(S)OC[C@H]21 (single isomer, unassigned) [Example 5-1] , same question.
Given back: > 100 µM

Asked: Next compound: Nc1ncnc2c1ncn2[C@@H]1C[C@@H]2COP(=O)(S)O[C@@H]3[C@H](F)[C@@H](COP(=O)(S)OC[C@H]21)O[C@H]3n1cnc2c(=O)n3cc[nH]c3nc21 (single isomer, unassigned) [Example 6-1]
Given back: 0.18 µM

Asked: Same for NC(=O)c1cc([C@@H]2C[C@@H]3COP(=O)(S)O[C@H]4[C@@H](F)[C@H](n5cnc6c(N)ncnc65)O[C@@H]4COP(=O)(S)OC[C@H]32)ccn1 (single isomer, unassigned) [Example 10]
Given back: 2.3 µM

Asked: Also, Nc1ncnc2c1ncn2[C@@H]1C[C@@H]2COP(=O)(S)O[C@@H]3[C@H](F)[C@@H](COP(=O)(S)OC[C@H]21)O[C@H]3n1cnc2c1ncn1ccnc21 (single isomer, unassigned) [Example 8-3] please.
Given back: 0.3 µM

Asked: What do we get for NC(=O)c1cc([C@@H]2C[C@@H]3COP(=O)(S)OC[C@@H]4[C@@H](COP(=O)(S)OC[C@H]32)C[C@H]4n2cnc3c(N)ncnc32)ccn1 (single isomer, unassigned) [Example 15-2] ?
Given back: 73.5 µM

Asked: Lookup Nc1ncnc2c1ncn2[C@@H]1C[C@@H]2COP(=O)(S)O[C@H]3[C@@H](F)[C@H](n4cnc5c4ncn4ccnc54)O[C@@H]3COP(=O)(S)OC[C@H]21 (single isomer, unassigned) [Example 17-1]
Given back: 3.55 µM

Asked: Now try Nc1ncnc2c1ncn2[C@@H]1O[C@@H]2COP(=O)(S)OC[C@@H]3[C@@H](COP(=O)(S)O[C@H]2[C@H]1F)C[C@H]3n1cnc2c(=O)[nH]cnc21 (single isomer, unassigned) [Example 22-4] .
Given back: 0.01 µM

Asked: // same read-out, input: Nc1ncnc2c1ncn2[C@@H]1C[C@@H]2COP(=O)(S)O[C@@H]3[C@H](O)[C@@H](COP(=O)(S)OC[C@H]21)O[C@H]3n1cnc2c(=O)n3ccnc3[nH]c21 (single isomer, unassigned)
Given back: 0.002 µM

Asked: Now the compound Nc1ncnc2c1ncn2[C@@H]1O[C@@H]2COP(=O)(S)OC[C@@H]3[C@@H](COP(=O)(S)O[C@H]2[C@H]1F)C[C@H]3n1cnc2c(O)n3ccnc3nc21 (single isomer, unassigned) [Example 1-3]
Given back: 0.02 µM

Asked: What do you get for Nc1ncnc2c1ncn2[C@@H]1O[C@@H]2COP(=O)(S)OC[C@@H]3[C@@H](COP(=O)(S)O[C@H]2[C@H]1F)C[C@H]3n1cnc2c(=O)n3cnnc3[nH]c21 (single isomer, unassigned) [Example 21-2] ?
Given back: 0.2 µM

Asked: Then Nc1ncnc2c1ncn2[C@@H]1O[C@@H]2COP(=O)(S)OC[C@@H]3[C@@H](COP(=O)(S)O[C@H]2[C@H]1F)C[C@H]3n1cnc2c(=O)[nH]cnc21 (single isomer, unassigned) [Example 22-1] ?
Given back: 0.1 µM

Asked: Can you handle Nc1ncnc2c1ncn2[C@@H]1C[C@@H]2COP(=O)(S)O[C@@H]3[C@H](F)[C@@H](COP(=O)(S)OC[C@H]21)O[C@H]3n1cnc2c1ncn1ccnc21 (single isomer, unassigned) [Example 8-4] next?
Given back: 0.08 µM

Asked: Now the same for NC(=O)c1cc([C@@H]2O[C@@H]3COP(=O)(S)OC[C@@H]4[C@@H](COP(=O)(S)O[C@@H]2[C@@H]3O)C[C@H]4n2cnc3c(N)ncnc32)ccn1 (single isomer, unassigned) [Example 20-2]
Given back: > 100 µM
